# EXPERIMENTAL_SYSTEM: AHR (Homo sapiens, UniProt P35869)
# Construct: endogenous in cells; host or cells: HepG2 (human), DRE-luciferase reporter stably or transiently transfected
# ASSAY_INFO: DRE-Luciferase Reporter Assay, HepG2, agonist
# Format: cell-based
# MEASUREMENT_CONDITIONS: HepG2 cells, agonist mode, Table 2, read-out: DRE-Luc HepG2 - Agonist: Average EC50
pEC50: −log10 of the molar value.
MEASURED_ENDPOINT: pEC50

MOLECULE	OBSERVED_MEASUREMENT
O=C(NCCOCCO)c1csc(C(=O)c2c[nH]c3ccccc23)n1 [Compound I-13]	6.00 to 7.00
NCCOCCNC(=O)c1csc(C(=O)c2c[nH]c3ccccc23)n1 [Compound I-42]	< 6.00
COC(=O)c1csc(C(=O)c2c[nH]c3cc(O)ccc23)n1 [Compound I-45]	< 6.00
COC(=O)c1csc(/C(=N/O)c2c[nH]c3ccccc23)n1 [Compound P-8]	6.00 to 7.00
Cn1c(C(=O)O)cnc1C(=O)c1c[nH]c2ccccc12 [Compound I-39]	< 6.00

The reported value for O=C(OCCOCCO)c1csc(C(=O)c2c[nH]c3ccccc23)n1 [Compound P-6] in terms of pEC50 is 6.00 to 7.00

In plain terms, CC(C)(C)OC(=O)NCCOCCNC(=O)c1csc(C(=O)c2c[nH]c3ccccc23)n1 [Compound I-41] has a documented pEC50 of < 6.00

Lab book: pEC50 of Cc1sc(C(=O)c2c[nH]c3ccccc23)nc1C(=O)NCCOCC[N+](C)(C)C [Compound I-16] noted as 6.00 to 7.00

Record COC(=O)c1nc(C(=O)c2c[nH]c3ccccc23)sc1C [Compound I-14] , field pEC50: 6.00 to 7.00

Looking up COC(=O)c1csc(C(=O)c2n[nH]c3ccccc23)n1 [Compound P-17] , I found its pEC50 recorded as < 6.00

Cc1sc(C(=O)c2c[nH]c3ccccc23)nc1C(=O)OCCOCC[N+](C)(C)C [Compound I-1] yielded pEC50 of > 8.00

// sample COC(=O)c1csc(C(=O)c2c[nH]c3ccc(OC)cc23)n1 [Compound P-7] , its pEC50 was 6.00 to 7.00

###

# EXPERIMENTAL_SYSTEM: AHR (Mus musculus, UniProt P30561)
# Construct: endogenous in cells; host or cells: Hepa1-6 / Hepa1.6 (murine hepatoma); DRE-luciferase reporter transfected in A3, no transfection in A2
# Sequence (P30561 10-805 limits assumed): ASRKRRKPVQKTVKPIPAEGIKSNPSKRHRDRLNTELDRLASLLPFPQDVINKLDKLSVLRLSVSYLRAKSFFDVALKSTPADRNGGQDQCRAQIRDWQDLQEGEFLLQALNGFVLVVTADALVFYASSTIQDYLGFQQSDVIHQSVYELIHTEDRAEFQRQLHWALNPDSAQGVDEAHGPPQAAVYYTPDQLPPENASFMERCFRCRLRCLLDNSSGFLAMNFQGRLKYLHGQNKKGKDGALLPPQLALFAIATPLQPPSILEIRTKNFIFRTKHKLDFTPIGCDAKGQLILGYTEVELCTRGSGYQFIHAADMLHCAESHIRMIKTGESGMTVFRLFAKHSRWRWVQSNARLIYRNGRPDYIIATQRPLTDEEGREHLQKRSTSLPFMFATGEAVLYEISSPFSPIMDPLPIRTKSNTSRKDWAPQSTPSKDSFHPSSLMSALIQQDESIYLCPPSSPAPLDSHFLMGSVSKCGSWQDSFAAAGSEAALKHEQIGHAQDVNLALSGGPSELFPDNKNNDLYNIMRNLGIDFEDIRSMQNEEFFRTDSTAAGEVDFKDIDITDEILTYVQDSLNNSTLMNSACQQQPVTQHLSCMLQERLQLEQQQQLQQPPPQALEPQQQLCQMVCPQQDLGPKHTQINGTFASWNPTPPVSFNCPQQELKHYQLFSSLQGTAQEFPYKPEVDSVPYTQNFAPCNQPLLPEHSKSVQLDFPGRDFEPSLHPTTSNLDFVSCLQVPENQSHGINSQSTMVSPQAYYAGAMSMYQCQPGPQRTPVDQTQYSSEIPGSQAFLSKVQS
# Sequence (P11499 whole entry partner): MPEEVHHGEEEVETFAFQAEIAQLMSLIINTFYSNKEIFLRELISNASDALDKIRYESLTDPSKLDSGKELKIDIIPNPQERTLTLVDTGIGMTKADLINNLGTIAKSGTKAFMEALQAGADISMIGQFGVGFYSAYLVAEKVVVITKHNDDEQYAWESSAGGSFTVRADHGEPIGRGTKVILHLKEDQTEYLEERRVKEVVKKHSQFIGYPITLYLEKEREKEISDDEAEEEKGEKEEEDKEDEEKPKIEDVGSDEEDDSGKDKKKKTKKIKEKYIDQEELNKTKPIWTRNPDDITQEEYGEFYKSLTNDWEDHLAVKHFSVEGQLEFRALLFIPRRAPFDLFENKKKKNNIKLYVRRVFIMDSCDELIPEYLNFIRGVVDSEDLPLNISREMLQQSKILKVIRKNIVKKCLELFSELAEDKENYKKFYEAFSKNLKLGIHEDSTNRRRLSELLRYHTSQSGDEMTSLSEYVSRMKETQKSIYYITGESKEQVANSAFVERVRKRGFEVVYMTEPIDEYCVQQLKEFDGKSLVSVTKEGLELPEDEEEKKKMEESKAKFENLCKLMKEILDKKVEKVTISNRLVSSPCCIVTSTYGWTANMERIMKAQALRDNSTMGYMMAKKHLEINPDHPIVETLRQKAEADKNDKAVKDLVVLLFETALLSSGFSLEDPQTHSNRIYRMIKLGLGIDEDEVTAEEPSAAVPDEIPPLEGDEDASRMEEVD
# Sequence (O08915 whole entry partner): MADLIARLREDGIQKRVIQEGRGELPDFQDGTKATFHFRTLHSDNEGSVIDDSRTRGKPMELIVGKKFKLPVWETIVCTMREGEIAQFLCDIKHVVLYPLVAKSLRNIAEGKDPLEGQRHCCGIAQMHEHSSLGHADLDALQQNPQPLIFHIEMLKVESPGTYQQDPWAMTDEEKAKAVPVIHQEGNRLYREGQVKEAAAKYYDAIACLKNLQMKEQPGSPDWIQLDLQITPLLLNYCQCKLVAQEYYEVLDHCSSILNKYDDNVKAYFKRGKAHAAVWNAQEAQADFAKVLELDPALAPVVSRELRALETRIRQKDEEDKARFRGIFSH
# ASSAY_INFO: DRE-Luciferase Reporter Assay, Hepa1.6, agonist
# Assay type: cell-based, murine
# MEASUREMENT_CONDITIONS: Hepa1.6 cells, agonist mode, Table 3, read-out: DRE-Luc Hepa1.6 - Agonist: Average EC50
Measured EC50, listed per entry.

COMPOUND_STRUCTURE	EC50
O=C(c1nc([C@H]2CC[C@H](O)CC2)cs1)c1c[nH]c2ccccc12	> 1 µM

Note to self: EC50 recorded for COC(=O)c1nc(C(=O)c2c[nH]c3ccccc23)sc1C(F)(F)F was > 1 µM

###

# EXPERIMENTAL_SYSTEM: AHR (Homo sapiens, UniProt P35869)
# Construct: endogenous in cells; host or cells: HepG2 (human), DRE-luciferase reporter stably or transiently transfected
# Sequence (P35869 11-848): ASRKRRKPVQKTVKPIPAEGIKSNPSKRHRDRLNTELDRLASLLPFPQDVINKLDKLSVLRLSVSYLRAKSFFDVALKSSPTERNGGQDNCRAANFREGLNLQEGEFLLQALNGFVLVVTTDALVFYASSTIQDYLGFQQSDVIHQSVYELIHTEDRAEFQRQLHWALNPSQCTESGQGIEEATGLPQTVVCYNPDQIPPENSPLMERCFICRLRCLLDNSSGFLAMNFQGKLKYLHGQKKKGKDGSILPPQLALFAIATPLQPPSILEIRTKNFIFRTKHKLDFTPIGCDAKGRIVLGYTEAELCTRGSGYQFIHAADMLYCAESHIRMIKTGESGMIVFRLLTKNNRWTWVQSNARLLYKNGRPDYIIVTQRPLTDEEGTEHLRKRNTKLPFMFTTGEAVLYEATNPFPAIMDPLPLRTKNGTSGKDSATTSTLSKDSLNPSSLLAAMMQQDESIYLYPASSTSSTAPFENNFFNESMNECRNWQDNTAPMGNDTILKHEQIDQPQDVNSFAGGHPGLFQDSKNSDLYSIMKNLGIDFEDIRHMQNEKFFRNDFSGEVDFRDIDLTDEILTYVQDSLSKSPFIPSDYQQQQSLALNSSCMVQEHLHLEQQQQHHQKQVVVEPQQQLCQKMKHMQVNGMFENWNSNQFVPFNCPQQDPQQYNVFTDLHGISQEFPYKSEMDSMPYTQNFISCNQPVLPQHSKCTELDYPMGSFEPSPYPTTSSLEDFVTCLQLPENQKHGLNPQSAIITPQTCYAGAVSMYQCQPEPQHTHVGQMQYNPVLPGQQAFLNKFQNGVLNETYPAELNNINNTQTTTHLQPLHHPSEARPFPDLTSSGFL
# ASSAY_INFO: DRE-Luciferase Reporter Assay, HepG2, agonist
# Type: cell-based
# MEASUREMENT_CONDITIONS: HepG2 cells, agonist mode, Table 3, read-out: DRE-Luc HepG2 - Agonist: Average EC50
pEC50: −log10 of the molar value.
MEASURED_ENDPOINT: pEC50

Some solved entries appear below for comparison.
COMPOUND_STRUCTURE	pEC50
N#Cc1nc(C(=O)c2c[nH]c3ccccc23)sc1N	> 8.00
COC(=O)c1nc(C(=O)c2c[nH]c3ccccc23)sc1C(F)(F)F	> 8.00

pEC50 reading for COC(=O)c1nc(C(=O)c2c[nH]c3ccccc23)sc1Cl : > 8.00

Short answer for Nc1sc(C(=O)c2c[nH]c3ccccc23)nc1C(F)(F)F : pEC50 was > 8.00

Quick note, pEC50 for COC(=O)c1nc(C(=O)c2c[nH]c3ccccc23)sc1Br landed at > 8.00

Form field pEC50, entry O=C(c1nc([C@H]2CC[C@H](O)CC2)cs1)c1c[nH]c2ccccc12 : 7.00 to 8.00

###

# EXPERIMENTAL_SYSTEM: AHR (Homo sapiens)
# Construct: endogenous in cells; host or cells: HepG2 (human), DRE-luciferase reporter stably or transiently transfected
# ASSAY_INFO: DRE-Luciferase Reporter Assay, HepG2, agonist
# Type: cell-based
# MEASUREMENT_CONDITIONS: HepG2 cells, agonist mode, Table 2, read-out: DRE-Luc HepG2 - Agonist: Average EC50
MEASURED_ENDPOINT: EC50

COMPOUND_STRUCTURE	MEASURED_ENDPOINT	OBSERVED_MEASUREMENT
C[N+](C)(C)CCOCCNC(=O)c1csc(C(=O)c2c[nH]c3ccccc23)n1	EC50	> 1000 nM

Memo: C[N+]1(C)CCN(C(=O)c2csc(C(=O)c3c[nH]c4ccccc34)n2)CC1 , reported EC50: > 1000 nM

For this compound ( O=C(c1nc(C(=O)N2CCCCC2)cs1)c1c[nH]c2ccccc12 ), measured EC50 is > 1000 nM
